# Procedure Text: Phase 2A study (Magnolia) in women with postpartum depression: ganaxolone plasma concentrations / pharmacokinetics
# Conditions: female, human, plasma, intravenous, 210 μg/kg/hr, Mean average GNX Concentration, calculated for dose 210 μg/kg/hr; time 48 hr
Property Label: concentration at 48 h
Number plus unit, in that order.

Looking up CC(=O)[C@H]1CC[C@H]2[C@@H]3CC[C@H]4C[C@](C)(O)CC[C@]4(C)[C@H]3CC[C@]12C [ganaxolone, 3α-hydroxy-3β-methyl-5α-pregnan-20-one] , I see its concentration at 48 h listed as 246 ng/mL

====

# Procedure Text: Phase 2A study (Magnolia) in women with postpartum depression: ganaxolone plasma concentrations / pharmacokinetics
# Conditions: female, human, plasma, intravenous, 260 μg/kg/hr, Mean average GNX Concentration, calculated for dose 260 μg/kg/hr; time 24 hr
Property Label: concentration at 24 h (ng/mL)
Numbers only, in ng/mL.

Looking up CC(=O)[C@H]1CC[C@H]2[C@@H]3CC[C@H]4C[C@](C)(O)CC[C@]4(C)[C@H]3CC[C@]12C [ganaxolone, 3α-hydroxy-3β-methyl-5α-pregnan-20-one] , I see its concentration at 24 h listed as 276
